SYSTEM: RET V804L (Homo sapiens (Human), UniProt P07949, V804L)
Sequence (P07949 29-1114 V804L): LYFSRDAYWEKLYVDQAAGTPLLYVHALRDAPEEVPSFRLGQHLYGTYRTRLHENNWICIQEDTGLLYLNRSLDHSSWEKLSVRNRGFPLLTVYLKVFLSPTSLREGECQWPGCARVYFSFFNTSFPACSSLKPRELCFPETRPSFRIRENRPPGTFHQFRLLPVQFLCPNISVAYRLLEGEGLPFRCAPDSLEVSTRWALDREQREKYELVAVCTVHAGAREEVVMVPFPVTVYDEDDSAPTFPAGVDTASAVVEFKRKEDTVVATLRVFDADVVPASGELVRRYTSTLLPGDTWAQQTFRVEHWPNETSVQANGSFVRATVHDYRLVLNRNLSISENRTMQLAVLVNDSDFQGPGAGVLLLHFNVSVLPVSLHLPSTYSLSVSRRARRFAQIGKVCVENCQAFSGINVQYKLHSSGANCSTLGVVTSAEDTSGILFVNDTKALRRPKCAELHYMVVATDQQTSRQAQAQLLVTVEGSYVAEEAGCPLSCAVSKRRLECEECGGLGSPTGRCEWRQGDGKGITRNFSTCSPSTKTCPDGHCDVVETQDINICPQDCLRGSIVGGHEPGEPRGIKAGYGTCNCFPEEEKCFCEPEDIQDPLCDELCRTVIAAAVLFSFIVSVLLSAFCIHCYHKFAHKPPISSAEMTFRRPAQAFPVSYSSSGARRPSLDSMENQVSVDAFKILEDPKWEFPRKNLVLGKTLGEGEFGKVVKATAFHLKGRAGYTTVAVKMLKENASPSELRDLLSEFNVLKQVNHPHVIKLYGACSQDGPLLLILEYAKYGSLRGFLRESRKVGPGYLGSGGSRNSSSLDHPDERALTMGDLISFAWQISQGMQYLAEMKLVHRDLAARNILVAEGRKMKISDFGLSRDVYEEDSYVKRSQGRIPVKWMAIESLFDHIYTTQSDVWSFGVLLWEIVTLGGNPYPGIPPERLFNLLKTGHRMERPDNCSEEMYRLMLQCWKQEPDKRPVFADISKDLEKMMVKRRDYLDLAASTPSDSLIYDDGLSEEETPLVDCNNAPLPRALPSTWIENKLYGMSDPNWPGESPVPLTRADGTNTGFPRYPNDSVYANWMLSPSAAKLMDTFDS
METHOD DESCRIPTION: RET V804L Gatekeeper Mutant Assay at KM (Caliper electrophoretic mobility shift)
MEASUREMENT SETUP: 10 μM ATP (KM), read-out: V480L Mutant
pIC50: −log10 of the molar value.
READOUT NAME: pIC50

Below are worked cases with known answers.
| MOLECULE SMILES | SYSTEM | TEST VALUE |
| --- | --- | --- |
| CO[C@]1(C(=O)N[C@@H](C)c2ccc(-n3cc(F)cn3)nc2)CN(c2nc(C)cc(Nc3cc(C)[nH]n3)n2)[C@H]1C | RET V804L (Homo sapiens (Human), UniProt P07949, V804L) | > 8.00 |
| COC1(C(=O)N(C)Cc2ccc(-n3cccn3)nc2)CCN(c2nc(C)cc(Nc3cc(C)[nH]n3)n2)CC1 | RET V804L (Homo sapiens (Human), UniProt P07949, V804L) | > 8.00 |

Consider the additional compound presented here.
Enquiry: # query: pIC50 of entry Cc1cc(Nc2cc(C)c(C#N)c(N3CC(F)(C(=O)N[C@@H](C)c4ccc(-n5cc(F)cn5)nc4)C3)n2)n[nH]1
Return: > 8.00
